Recorded half-life by entry
Test: Pharmacokinetics in mice, brain
Assay type: in vivo, C57BL/6 mice
Conditions: male, C57BL/6; mouse brain, oral, 10 mg/kg
Where a name gives a salt, the structure may show the parent alone.
Numeric only. Scale: h

Solved entries (count: 2):
molecule: CCN(C)CCc1c[nH]c2ccc(F)cc12 [Compound 4, hydrochloride]
unit_annotation: h
obs_value: 1.32

molecule: CCN(C)CCc1c[nH]c2ccccc12 [Compound 2, methylethyltryptamine]
unit_annotation: h
obs_value: 7.52

Please turn your attention to the following entry.
Fill in the blank: the reported half-life of CCCN(CC)CCc1c[nH]c2ccccc12 [Compound 1, ethylpropyltryptamine] is ____.
0.66

----------
pIC50: −log10 of the molar value. Where a name gives a salt, the structure may show the parent alone.
Consider compounds characterized by their pIC50 with CYP1A2 (Homo sapiens (Human), UniProt P05177).
Sequence (P05177 whole entry, looked up): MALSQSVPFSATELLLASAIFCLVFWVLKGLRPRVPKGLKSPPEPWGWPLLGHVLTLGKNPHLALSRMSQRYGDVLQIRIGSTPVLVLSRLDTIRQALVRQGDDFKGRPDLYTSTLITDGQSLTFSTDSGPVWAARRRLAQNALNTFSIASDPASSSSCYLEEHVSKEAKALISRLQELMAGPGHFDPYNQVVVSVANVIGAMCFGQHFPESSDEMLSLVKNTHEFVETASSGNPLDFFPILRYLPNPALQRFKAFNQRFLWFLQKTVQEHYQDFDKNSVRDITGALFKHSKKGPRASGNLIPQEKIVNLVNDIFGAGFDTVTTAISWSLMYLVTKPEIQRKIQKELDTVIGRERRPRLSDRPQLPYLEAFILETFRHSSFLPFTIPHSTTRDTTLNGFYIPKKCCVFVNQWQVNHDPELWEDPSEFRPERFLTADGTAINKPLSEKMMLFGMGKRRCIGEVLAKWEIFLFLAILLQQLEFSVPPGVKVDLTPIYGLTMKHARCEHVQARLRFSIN

Solved entries (count: 3):
compound: CCCN(CC)CCc1c[nH]c2ccc(F)cc12 [Compound 3, hydrochloride]
obs_value: 5.08
//
compound: CCN(C)CCc1c[nH]c2ccccc12
obs_value: < 4.30
//
compound: CCN(C)CCc1c[nH]c2ccc(F)cc12 [Compound 4, hydrochloride]
obs_value: < 4.30

Please turn your attention to the following entry.
Observed pIC50 on CYP1A2 (Homo sapiens (Human), UniProt P05177) for CCN(C)CCc1c[nH]c2cccc(O)c12 , please.
< 4.30

----------
Experiment: Pharmacokinetics in rats, plasma
Format: in vivo
Settings: male, Sprague Dawley; rat plasma, SC, 10 mg/kg
Counter-ions that a name gives are not always drawn.
Recorded AUC(0-t) by entry
Numeric only. Scale: ng·h/mL

Solved entries (count: 2):
molecule: CCN(C)CCc1c[nH]c2ccc(F)cc12 [Compound 4, hydrochloride]
unit_annotation: ng·h/mL
obs_value: 499
//
molecule: CN(C)CCc1c[nH]c2ccc(F)cc12 [Compound 5, hydrochloride]
unit_annotation: ng·h/mL
obs_value: 266

Fill in the blank: the reported AUC(0-t) of CCN(C)CCc1c[nH]c2cccc(O)c12 is ____.
3000

----------
Target: 5-HT1A (Homo sapiens (Human), UniProt P08908)
Test: FLIPR Ca2+ flux agonist assay, 5-HT1A
Assay type: cell-based
Where a name gives a salt, the structure may show the parent alone.
Recorded EC50 by entry
Numeric only. Scale: µM

Solved entries (count: 3):
molecule: CCN(C)CCc1c[nH]c2ccccc12 [Compound 2, methylethyltryptamine]
unit_annotation: µM
EC50: 59.5

molecule: CCCN(CC)CCc1c[nH]c2ccccc12 [Compound 1, ethylpropyltryptamine]
unit_annotation: µM
EC50: 88.7

molecule: CCN(C)CCc1c[nH]c2ccc(F)cc12 [Compound 4, hydrochloride]
unit_annotation: µM
EC50: 16.9

Please turn your attention to the following entry.
Fill in the blank: the reported EC50 of CCCN(CC)CCc1c[nH]c2ccc(F)cc12 [Compound 3, hydrochloride] is ____.
19.6

----------
Target: serotonin transporter (SERT) (Homo sapiens (Human), UniProt P31645)
Assay: SERT fluorescent substrate uptake inhibition in transfected HEK293 cells
Format: cell-based
Details: HEK293 cells expressing SERT
Where a name gives a salt, the structure may show the parent alone.
measured_endpoint: SERT % Inhibition @ Max Dose (%)
Numeric only. Scale: %

Solved entries (count: 2):
molecule: CCCN(CC)CCc1c[nH]c2ccccc12 [Compound 1, ethylpropyltryptamine]
SERT % Inhibition @ Max Dose [%]: 75.35
--
molecule: CCN(C)CCc1c[nH]c2cccc(O)c12 [Compound 6]
SERT % Inhibition @ Max Dose [%]: 84.02

Please turn your attention to the following entry.
Fill in the blank: the reported SERT % Inhibition @ Max Dose of CCN(C)CCc1c[nH]c2ccc(F)cc12 [Compound 4, hydrochloride] is ____.
77.45

----------
Molecular target: CYP2D6 (Homo sapiens (Human), UniProt P10635)
Sequence (P10635 whole entry, looked up): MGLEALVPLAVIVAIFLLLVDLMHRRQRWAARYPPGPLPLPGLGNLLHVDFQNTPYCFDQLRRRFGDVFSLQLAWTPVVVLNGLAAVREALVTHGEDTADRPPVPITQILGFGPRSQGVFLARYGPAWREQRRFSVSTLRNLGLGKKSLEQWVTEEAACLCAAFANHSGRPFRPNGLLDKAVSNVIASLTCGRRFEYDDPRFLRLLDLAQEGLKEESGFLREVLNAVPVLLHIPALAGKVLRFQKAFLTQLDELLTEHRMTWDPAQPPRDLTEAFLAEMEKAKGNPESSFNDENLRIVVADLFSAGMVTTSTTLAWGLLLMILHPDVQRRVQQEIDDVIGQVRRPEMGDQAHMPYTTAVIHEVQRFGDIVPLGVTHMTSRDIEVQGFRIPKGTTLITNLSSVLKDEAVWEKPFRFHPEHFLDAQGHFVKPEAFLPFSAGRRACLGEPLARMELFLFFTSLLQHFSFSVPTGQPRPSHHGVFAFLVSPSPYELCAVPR
Assay: CYP inhibition in human liver microsomes, CYP2D6
Assay type: in vitro ADME
Details: both sexes, human, pooled human liver microsomes, pH 7.4, probe dextromethorphan (5 μM); HLM, 10 μM, dextromethorphan substrate; read-out: CYP 2D6 % Inhibition at 10 μM
measured_endpoint: inhibition at 10 min, 10 µM

test_smiles: CCN(C)CCc1c[nH]c2ccccc12
inhibition at 10 min, 10 µM: 11.5%

Please turn your attention to the following entry.
Fill in the blank: the reported inhibition at 10 min, 10 µM of CCCN(CC)CCc1c[nH]c2ccccc12 is ____.
58.6%

----------
Assay: Pharmacokinetics in rats, plasma
Format: in vivo
Details: male, Sprague Dawley; rat plasma, SC, 1 mg/kg
Where a name gives a salt, the structure may show the parent alone.
measured_endpoint: Cmax (ng/mL)
Numeric only. Scale: ng/mL

Fill in the blank: the reported Cmax of CCN(C)CCc1c[nH]c2ccc(F)cc12 [Compound 4, hydrochloride] is ____.
41.3

----------
Experiment: Pharmacokinetics in mice, plasma
Format: in vivo, C57BL/6 mice
Conditions: male, C57BL/6; mouse plasma, IV, 1 mg/kg
measured_endpoint: clearance (mL/min/kg)
Numeric only. Scale: mL/min/kg

Fill in the blank: the reported clearance of CN(C)CCc1c[nH]c2cccc(O)c12 [Psilocin, psilocin, reference compound] is ____.
204

----------
Recorded inhibition at 10 min, 10 µM by entry
Target: CYP1A2 (Homo sapiens (Human))
Assay: CYP inhibition in human liver microsomes, CYP1A2
Format: in vitro ADME
Settings: both sexes, human, pooled human liver microsomes, pH 7.4, probe phenacetin (10 μM); HLM, 10 μM, phenacetin substrate; read-out: CYP 1A2 % Inhibition at 10 μM
Numeric only. Scale: %

test_smiles: CCN(C)CCc1c[nH]c2ccccc12
target_of_assay: CYP1A2 (Homo sapiens (Human))
unit_annotation: %
inhibition at 10 min, 10 µM: 0.5

Fill in the blank: the reported inhibition at 10 min, 10 µM of CCCN(CC)CCc1c[nH]c2ccccc12 is ____.
37.1

----------
Test: Pharmacokinetics in mice, plasma
Type: in vivo, C57BL/6 mice
Details: male, C57BL/6; mouse plasma, oral, 1 mg/kg
measured_endpoint: AUC(0-t) (ng·h/mL)
Numeric only. Scale: ng·h/mL

Fill in the blank: the reported AUC(0-t) of CN(C)CCc1c[nH]c2cccc(O)c12 [Psilocin, psilocin, reference compound] is ____.
51.1

----------
System: monoamine oxidase A and B (MAO-A and MAO-B)
Experiment: Stability in the presence of monoamine oxidases (human liver mitochondria)
Assay type: in vitro ADME
Conditions: human liver mitochondria, pH 7.4; human mitochondrial preparation, 1 μM
Counter-ions that a name gives are not always drawn.
measured_endpoint: microsomal CLint at 1 μM

molecule: CN(C)CCc1c[nH]c2ccc(F)cc12 [Compound 5, hydrochloride]
microsomal CLint at 1 μM: 266 µL/min/mg
--
molecule: CN(C)CCc1c[nH]c2cccc(O)c12 [Psilocin, psilocin, reference compound]
microsomal CLint at 1 μM: < 15.9 µL/min/mg
--
molecule: CCN(C)CCc1c[nH]c2cccc(O)c12
microsomal CLint at 1 μM: < 15.9 µL/min/mg
--
molecule: CCCN(CC)CCc1c[nH]c2ccccc12
microsomal CLint at 1 μM: < 15.9 µL/min/mg
--
molecule: CCCN(CC)CCc1c[nH]c2ccc(F)cc12 [Compound 3, hydrochloride]
microsomal CLint at 1 μM: < 15.9 µL/min/mg
--
molecule: COc1ccc2[nH]cc(CCN(C)C)c2c1 [Compound 5-MeO-DMT, 5-methoxy-N,N-dimethyltryptamine, reference compound]
microsomal CLint at 1 μM: 43.6 µL/min/mg
--
molecule: CN(C)CCc1c[nH]c2ccccc12 [DMT, N,N-dimethyltryptamine, reference compound]
microsomal CLint at 1 μM: 135 µL/min/mg
--
molecule: CCN(C)CCc1c[nH]c2ccccc12
microsomal CLint at 1 μM: < 15.9 µL/min/mg

Fill in the blank: the reported microsomal CLint at 1 μM of CCN(C)CCc1c[nH]c2ccc(F)cc12 [Compound 4, hydrochloride] is ____.
< 15.9 µL/min/mg

----------
Test: Stability in rat brain homogenate
Format: in vitro ADME, Sprague Dawley rats
Where a name gives a salt, the structure may show the parent alone.
measured_endpoint: stability in rat brain homogenate (in words)

Solved entries (count: 6):
compound: COc1ccc2[nH]cc(CCN(C)C)c2c1 [Compound 5-MeO-DMT, 5-methoxy-N,N-dimethyltryptamine, reference compound]
obs_value: highly unstable
//
compound: CN(C)CCc1c[nH]c2cccc(O)c12 [Psilocin, psilocin, reference compound]
obs_value: intermediate stability
//
compound: CCCN(CC)CCc1c[nH]c2ccccc12
obs_value: high stability
//
compound: CCCN(CC)CCc1c[nH]c2ccc(F)cc12 [Compound 3, hydrochloride]
obs_value: high stability
//
compound: CN(C)CCc1c[nH]c2ccc(F)cc12 [Compound 5, hydrochloride]
obs_value: highly unstable
//
compound: CN(C)CCc1c[nH]c2ccccc12 [DMT, N,N-dimethyltryptamine, reference compound]
obs_value: highly unstable

Fill in the blank: the reported stability in rat brain homogenate (in words) of CCN(C)CCc1c[nH]c2ccccc12 is ____.
high stability

Fill in the blank: the reported stability in rat brain homogenate (in words) of CCN(C)CCc1c[nH]c2ccc(F)cc12 [Compound 4, hydrochloride] is ____.
intermediate stability

Fill in the blank: the reported stability in rat brain homogenate (in words) of CCN(C)CCc1c[nH]c2cccc(O)c12 is ____.
intermediate stability
